Listing of entries alongside the reported MIC.
- Test system: Pseudomonas aeruginosa
- PROTOCOL_DESCRIPTION: Antibacterial activity against colistin-sensitive Pseudomonas aeruginosa after 24 hrs by microbroth dilution method
- Type: functional

{"STRUCTURE_STRING": "CC(C)[C@@H](CC[C@@H](C)[C@H]1CC[C@H]2[C@@H]3[C@H](O)C[C@H]4C[C@@H](NCCCNCCCCN)CC[C@]4(C)[C@H]3CC[C@]12C)OS(=O)(=O)O", "MIC": "5 µg/mL"}
{"STRUCTURE_STRING": "C[C@@H](N)[C@H]1CC[C@H]2[C@@H]3CCC4=C[C@@H](N)CC[C@]4(C)[C@H]3CC[C@]12C", "MIC": "> 40 µg/mL"}

Shift focus to the following entry.
IN: So what's the measured MIC for this one? C[C@@H](NCCCCCCCCN)[C@H]1CC[C@H]2[C@@H]3CCC4=C[C@@H](NCCCCCCCCN)CC[C@]4(C)[C@H]3CC[C@]12C
OUT: 2.5 µg/mL

----------
Attribute: MIC
- Tested on: Staphylococcus aureus
- PROTOCOL_DESCRIPTION: Antibacterial activity against Staphylococcus aureus after 24 hrs by microbroth dilution method
- Format: functional
Write it as a number; the unit µg/mL goes unstated.

Examples from the recorded data:
{"STRUCTURE_STRING": "C[C@@H](N)[C@H]1CC[C@H]2[C@@H]3CCC4=C[C@@H](N)CC[C@]4(C)[C@H]3CC[C@]12C", "OBSERVED_RESULT": 40}
{"STRUCTURE_STRING": "CC(C)[C@@H](CC[C@@H](C)[C@H]1CC[C@H]2[C@@H]3[C@H](O)C[C@H]4C[C@@H](NCCCNCCCCN)CC[C@]4(C)[C@H]3CC[C@]12C)OS(=O)(=O)O", "OBSERVED_RESULT": 1.25}
{"STRUCTURE_STRING": "CN[C@@H]1C=C2CC[C@H]3[C@@H]4CC[C@H]([C@@H](C)NC)[C@@]4(C)CC[C@@H]3[C@@]2(C)CC1", "OBSERVED_RESULT": 40}
{"STRUCTURE_STRING": "C[C@@H](NCCCCCCCCCCN)[C@H]1CC[C@H]2[C@@H]3CCC4=C[C@@H](NCCCCCCCCCCN)CC[C@]4(C)[C@H]3CC[C@]12C", "OBSERVED_RESULT": 10}

Consider the record given below.
IN: Need MIC of C[C@@H](NCCCCN)[C@H]1CC[C@H]2[C@@H]3CCC4=C[C@@H](NCCCCN)CC[C@]4(C)[C@H]3CC[C@]12C , thanks.
OUT: 5
